The values you see were collected from patent US20250313625A1.

tgt: T1, hFc tagged human LAG3 D1-D2 recombinant protein (human, UniProt P18627 23-261)
T1 construct: range 23-261; generated by Chempartner; also called hLAG3 D1-D2; not shown: human IgG Fc tag
T1 sequence (looked up): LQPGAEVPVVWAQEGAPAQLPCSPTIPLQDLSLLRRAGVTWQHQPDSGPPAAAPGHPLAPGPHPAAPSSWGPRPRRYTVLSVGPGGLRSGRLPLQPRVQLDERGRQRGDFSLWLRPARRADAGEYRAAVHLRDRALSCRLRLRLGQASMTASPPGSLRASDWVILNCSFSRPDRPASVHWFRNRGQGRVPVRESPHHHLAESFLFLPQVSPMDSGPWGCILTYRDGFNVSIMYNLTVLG
test description: ELISA, coated hFc-hLAG3 D1-D2
Here the recorded pEC50 is given for each entry.
In textbook form, pEC50 equals minus log to base ten of the concentration in mol/L.

Antibody 047 (antibody, V domains shown, mouse hybridoma antibody) VH: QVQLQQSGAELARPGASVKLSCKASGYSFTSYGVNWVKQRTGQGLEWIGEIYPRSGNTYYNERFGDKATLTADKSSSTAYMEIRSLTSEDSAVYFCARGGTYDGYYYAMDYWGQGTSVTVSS VL: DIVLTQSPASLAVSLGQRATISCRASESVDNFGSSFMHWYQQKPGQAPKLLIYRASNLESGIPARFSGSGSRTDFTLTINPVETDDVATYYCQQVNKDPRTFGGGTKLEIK; 10.40
Antibody 033 (antibody, V domains shown, mouse hybridoma antibody) VH: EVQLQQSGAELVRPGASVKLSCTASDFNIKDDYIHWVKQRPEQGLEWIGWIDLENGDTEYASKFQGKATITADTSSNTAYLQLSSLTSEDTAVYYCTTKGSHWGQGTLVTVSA VL: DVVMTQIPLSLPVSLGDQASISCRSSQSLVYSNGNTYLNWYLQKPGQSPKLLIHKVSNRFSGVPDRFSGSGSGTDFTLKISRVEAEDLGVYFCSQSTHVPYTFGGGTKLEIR; 10.15

Entry Antibody 015 (antibody, V domains shown, mouse hybridoma antibody) VH: EVQLQQSGPVLVKPGASVKLSCKASGFTFTDYYMNWVKLSHGKSLEWIGVINPFNGDTAYKQKFKGKATLTVDKSSSTAYMELNSLTSEDSAVYYCARDDGYYLYYFDSWGQGTTLTVSS VL: DIQMTQSPSSLSASLGERVSLTCRASQDIGSRLNWLQQEPDGTIKRLIYATSSLDSGVPKRFSGSRSGSDYSLTISSLDSEDFVVYYCLQYASSPPTFGAGTKLELK ; pEC50 = 9.60
